Assay: surface tension of aqueous surfactant solutions and critical micelle concentration (K-12 Processor Tensiometer)
Type: physicochemical
Conditions: deionized water; Table 3
Property: Surf. Tens. at the CMC; scope: individual compounds
Report as a plain number; the unit dynes/cm is understood.

compound	readoutUnit	Surf. Tens. at the CMC
C[n+]1ccc(C(=O)NCCOC(=O)C(F)(C(F)(F)F)C(F)(F)C(F)(F)C(F)(F)C(F)(F)C(F)(F)C(F)(F)C(F)(F)F)cc1 (stereo not shown)	dynes/cm	15.0
C[N+](C)([O-])CCCNC(=O)C(F)(C(F)(F)F)C(F)(F)C(F)(F)C(F)(F)C(F)(F)C(F)(F)C(F)(F)C(F)(F)C(F)(F)F (stereo not shown)	dynes/cm	16.5

Consider the compound C[N+](C)([O-])CCCN(CCO)C(=O)C(F)(C(F)(F)F)C(F)(F)C(F)(F)C(F)(F)C(F)(F)C(F)(F)C(F)(F)C(F)(F)F (stereo not shown) and give its measured Surf. Tens. at the CMC.
16.6

Please give the measured Surf. Tens. at the CMC for this compound: O=C([O-])CC[N+]1(CCCNC(=O)C(F)(C(F)(F)F)C(F)(F)C(F)(F)C(F)(F)C(F)(F)C(F)(F)C(F)(F)C(F)(F)F)CCOCC1 (stereo not shown)
19.2

Could you share which Surf. Tens. at the CMC value was measured for O=C(OCCc1cccc[n+]1[O-])C(F)(C(F)(F)F)C(F)(F)C(F)(F)C(F)(F)C(F)(F)C(F)(F)C(F)(F)F (stereo not shown) ?
18.3

* * *

Quick list: CMC per entry.
Assay: surface tension of aqueous surfactant solutions and critical micelle concentration (K-12 Processor Tensiometer)
Type: physicochemical
Details: carboxylate salts, deionized water; Table 5
Give the value, in units of ppm, as a plain number.

The cases that follow already have their CMC on record.
compound	reportedResult
O=C(O)C(F)(C(F)(F)F)C(F)(F)C(F)(F)C(F)(F)C(F)(F)C(F)(F)C(F)(F)C(F)(F)F (stereo not drawn) [Example M26, C7 F15 CF(CF3)COO^- Na^+]	3000
O=C(O)C(F)(C(F)(F)F)C(F)(F)C(F)(F)C(F)(F)C(F)(F)C(F)(F)C(F)(F)C(F)(F)F (stereo not drawn) [Example M14, C7 F15 CF(CF3)COO^- H4 N^+]	2500
O=C(O)C(F)(C(F)(F)F)C(F)(F)C(F)(F)C(F)(F)C(F)(F)C(F)(F)C(F)(F)C(F)(F)F (stereo not drawn) [Example M20, C7 F15 CF(CF3)COO^- H3 N^+ C2 H4 OH]	500
O=C(O)C(F)(C(F)(F)F)C(F)(F)C(F)(F)C(F)(F)C(F)(F)C(F)(F)C(F)(F)F (stereo not drawn) [Example M22, C6 F13 CF(CF3)COO^- K^+]	10000
O=C(O)C(F)(C(F)(F)F)C(F)(F)C(F)(F)C(F)(F)C(F)(F)C(F)(F)C(F)(F)C(F)(F)F (stereo not drawn) [Example M23, C7 F15 CF(CF3)COO^- K^+]	2500
O=C(O)C(F)(C(F)(F)F)C(F)(F)C(F)(F)C(F)(F)C(F)(F)C(F)(F)C(F)(F)C(F)(F)C(F)(F)F (stereo not drawn) [Example M24, C8 F17 CF(CF3)COO^- K^+]	3000
O=C(O)C(F)(F)C(F)(F)C(F)(F)C(F)(F)C(F)(F)C(F)(F)C(F)(F)F	8000

Consider the record given below.
// lookup CMC for O=C(O)C(F)(C(F)(F)F)C(F)(F)C(F)(F)C(F)(F)C(F)(F)C(F)(F)C(F)(F)F (stereo not drawn) [Example M16, C6 F13 CF(CF3)COO^- H4 N^+]
8000

* * *

Test: surface tension of aqueous surfactant solutions and critical micelle concentration (K-12 Processor Tensiometer)
Format: physicochemical
Settings: carboxylate salts, deionized water; Table 5
parameter: Surf. Tens. at the CMC (dynes/cm)
Answer in dynes/cm, number only, no unit symbol.

molecule	reportedResult
O=C(O)C(F)(C(F)(F)F)C(F)(F)C(F)(F)C(F)(F)C(F)(F)C(F)(F)C(F)(F)C(F)(F)C(F)(F)F (stereo not drawn) [Example M17, C8 F17 CF(CF3)COO^- H4 N^+]	14.7

Item O=C(O)C(F)(C(F)(F)F)C(F)(F)C(F)(F)C(F)(F)C(F)(F)C(F)(F)C(F)(F)F (stereo not drawn) [Example M16, C6 F13 CF(CF3)COO^- H4 N^+] has what recorded Surf. Tens. at the CMC?
17.9

What value of Surf. Tens. at the CMC has been recorded for this entry: O=C(O)C(F)(C(F)(F)F)C(F)(F)C(F)(F)C(F)(F)C(F)(F)C(F)(F)C(F)(F)C(F)(F)F (stereo not drawn) [Example M26, C7 F15 CF(CF3)COO^- Na^+]
19.4

* * *

Assay: surface tension of aqueous surfactant solutions and critical micelle concentration (K-12 Processor Tensiometer)
Type: physicochemical
Settings: deionized water; Table 3
Some molecules, each annotated with its measured CMC.
Hi! Could you send only the number? It should be in ppm, unit omitted.

Examples with their reported CMC follow.
molecule	CMC, ppm
CN(C)CCCN(CCCN(C)C)C(=O)C(F)(C(F)(F)F)C(F)(F)C(F)(F)C(F)(F)C(F)(F)C(F)(F)C(F)(F)C(F)(F)F (centres unmarked) [Example F9]	1000
O=C(NCCC[N+]1(CCO)CCOCC1)C(F)(C(F)(F)F)C(F)(F)C(F)(F)C(F)(F)C(F)(F)C(F)(F)C(F)(F)C(F)(F)F (centres unmarked) [Example F5]	1000
C[N+](C)([O-])CCCNC(=O)C(F)(C(F)(F)F)C(F)(F)C(F)(F)C(F)(F)C(F)(F)C(F)(F)C(F)(F)C(F)(F)C(F)(F)C(F)(F)C(F)(F)F (centres unmarked) [Example E5, C10 F21 CF(CF3)CONH(CH2)3 N^+ (CH3)2 O^-]	500
C[N+](C)(CCCN(CCC[N+](C)(C)CCC(=O)[O-])C(=O)C(F)(C(F)(F)F)C(F)(F)C(F)(F)C(F)(F)C(F)(F)C(F)(F)C(F)(F)C(F)(F)F)CCC(=O)[O-] (centres unmarked) [Example K4]	100

Then there is this molecule:
Entry O=C(NCCOC(=O)C(F)(C(F)(F)F)C(F)(F)C(F)(F)C(F)(F)C(F)(F)C(F)(F)C(F)(F)C(F)(F)F)c1cc[n+]([O-])cc1 (centres unmarked) [Example E10] : reported CMC = ?
400

* * *

The following molecules are shown together with reported Surf. Tens. at the CMC values.
Assay: surface tension of aqueous surfactant solutions and critical micelle concentration (K-12 Processor Tensiometer)
Type: physicochemical
Details: carboxylate salts, deionized water; Table 5
The reply should contain only the number, in dynes/cm.

molecule	Surf. Tens. at the CMC [dynes/cm]
O=C(O)C(F)(C(F)(F)F)C(F)(F)C(F)(F)C(F)(F)C(F)(F)C(F)(F)C(F)(F)F (centres unmarked) [Example M25, C6 F13 CF(CF3)COO^- Na^+]	19.8
O=C(O)C(F)(C(F)(F)F)C(F)(F)C(F)(F)C(F)(F)C(F)(F)C(F)(F)C(F)(F)C(F)(F)C(F)(F)C(F)(F)C(F)(F)F (centres unmarked) [Example M18, C10 F21 CF(CF3)COO^- H4 N^+]	14.8
O=C(O)C(F)(C(F)(F)F)C(F)(F)C(F)(F)C(F)(F)C(F)(F)C(F)(F)F (centres unmarked) [Example M21, C5 F11 CF(CF3)COO^- K^+]	22.5
O=C(O)C(F)(C(F)(F)F)C(F)(F)C(F)(F)C(F)(F)C(F)(F)C(F)(F)C(F)(F)C(F)(F)C(F)(F)F (centres unmarked) [Example M24, C8 F17 CF(CF3)COO^- K^+]	16.4
O=C(O)C(F)(C(F)(F)F)C(F)(F)C(F)(F)C(F)(F)C(F)(F)C(F)(F)C(F)(F)C(F)(F)F (centres unmarked) [Example M30]	16.2

What value of Surf. Tens. at the CMC has been reported for the following molecule? O=C(O)C(F)(C(F)(F)F)C(F)(F)C(F)(F)C(F)(F)C(F)(F)C(F)(F)C(F)(F)C(F)(F)F (centres unmarked) [Example M14, C7 F15 CF(CF3)COO^- H4 N^+]
16.5

Dear colleague, I am looking for the recorded Surf. Tens. at the CMC of the following molecule: O=C(O)C(F)(C(F)(F)F)C(F)(F)C(F)(F)C(F)(F)C(F)(F)C(F)(F)F (centres unmarked) [Example M15, C5 F11 CF(CF3)COO^- H4 N^+]
22.1

What does the data say about its Surf. Tens. at the CMC? Entry: O=C(O)C(F)(C(F)(F)F)C(F)(F)C(F)(F)C(F)(F)C(F)(F)C(F)(F)C(F)(F)C(F)(F)F (centres unmarked) [Example M23, C7 F15 CF(CF3)COO^- K^+]
15.0

* * *

Collected CMC values appear next to each entry.
Test: surface tension of aqueous surfactant solutions and critical micelle concentration (K-12 Processor Tensiometer)
Format: physicochemical
Conditions: carboxylate salts, deionized water; Table 5
Procedure: Critical Micelle Concentration (CMC): The critical micelle concentration is defined as the concentration at which further surface tension is no longer lowered with increasing levels of surfactant. […] Surface tension is then plotted vs. log concentration and the data points are connected. […] Then the critical micelle concentration (CMC) was determined for each surfactant.

Worked cases, answers included:
molecule	CMC
O=C(O)C(F)(C(F)(F)F)C(F)(F)C(F)(F)C(F)(F)C(F)(F)C(F)(F)F (stereo not shown) [Example M15, C5 F11 CF(CF3)COO^- H4 N^+]	> 10000 ppm
O=C(O)C(F)(C(F)(F)F)C(F)(F)C(F)(F)C(F)(F)C(F)(F)C(F)(F)C(F)(F)C(F)(F)C(F)(F)F (stereo not shown) [Example M17, C8 F17 CF(CF3)COO^- H4 N^+]	2300 ppm
O=C(O)C(F)(C(F)(F)F)C(F)(F)C(F)(F)C(F)(F)C(F)(F)C(F)(F)C(F)(F)C(F)(F)F (stereo not shown) [Example M27, C7 F15 CF(CF3)COO^- Li^+]	3500 ppm

Then this molecule:
Reported CMC for O=C(O)C(F)(C(F)(F)F)C(F)(F)C(F)(F)C(F)(F)C(F)(F)C(F)(F)C(F)(F)F (stereo not shown) [Example M25, C6 F13 CF(CF3)COO^- Na^+] : what is it?
10000 ppm
